B1: TPR 5TU (parent)
chain: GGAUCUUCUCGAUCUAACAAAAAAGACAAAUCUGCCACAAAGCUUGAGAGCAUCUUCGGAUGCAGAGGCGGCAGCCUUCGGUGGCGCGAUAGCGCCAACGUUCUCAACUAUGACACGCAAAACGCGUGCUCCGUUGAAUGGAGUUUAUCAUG

variants of: B1; experiment: polymerase ribozyme fitness, log enrichment relative to wild type (log ratio); higher = more active; in vitro selection for triplet polymerase activity
Variants at the floor of the assay were thinned out.
Assign true (1) to entries whose polymerase ribozyme fitness (log ratio) meets or exceeds -2; assign false (0) to the rest.

Given A16C A19U C85U G117U A150U , state whether its polymerase ribozyme fitness (log ratio) is at least -2.
true (1)

Next:
Given G25C U61A C75G A91G A97U , state whether its polymerase ribozyme fitness (log ratio) is at least -2.
false (0)

Given A52C C93U G94C , state whether its polymerase ribozyme fitness (log ratio) is at least -2.
false (0)
